target: VEGFR (Homo sapiens, UniProt P35968)
Sequence (P35968 20-1356): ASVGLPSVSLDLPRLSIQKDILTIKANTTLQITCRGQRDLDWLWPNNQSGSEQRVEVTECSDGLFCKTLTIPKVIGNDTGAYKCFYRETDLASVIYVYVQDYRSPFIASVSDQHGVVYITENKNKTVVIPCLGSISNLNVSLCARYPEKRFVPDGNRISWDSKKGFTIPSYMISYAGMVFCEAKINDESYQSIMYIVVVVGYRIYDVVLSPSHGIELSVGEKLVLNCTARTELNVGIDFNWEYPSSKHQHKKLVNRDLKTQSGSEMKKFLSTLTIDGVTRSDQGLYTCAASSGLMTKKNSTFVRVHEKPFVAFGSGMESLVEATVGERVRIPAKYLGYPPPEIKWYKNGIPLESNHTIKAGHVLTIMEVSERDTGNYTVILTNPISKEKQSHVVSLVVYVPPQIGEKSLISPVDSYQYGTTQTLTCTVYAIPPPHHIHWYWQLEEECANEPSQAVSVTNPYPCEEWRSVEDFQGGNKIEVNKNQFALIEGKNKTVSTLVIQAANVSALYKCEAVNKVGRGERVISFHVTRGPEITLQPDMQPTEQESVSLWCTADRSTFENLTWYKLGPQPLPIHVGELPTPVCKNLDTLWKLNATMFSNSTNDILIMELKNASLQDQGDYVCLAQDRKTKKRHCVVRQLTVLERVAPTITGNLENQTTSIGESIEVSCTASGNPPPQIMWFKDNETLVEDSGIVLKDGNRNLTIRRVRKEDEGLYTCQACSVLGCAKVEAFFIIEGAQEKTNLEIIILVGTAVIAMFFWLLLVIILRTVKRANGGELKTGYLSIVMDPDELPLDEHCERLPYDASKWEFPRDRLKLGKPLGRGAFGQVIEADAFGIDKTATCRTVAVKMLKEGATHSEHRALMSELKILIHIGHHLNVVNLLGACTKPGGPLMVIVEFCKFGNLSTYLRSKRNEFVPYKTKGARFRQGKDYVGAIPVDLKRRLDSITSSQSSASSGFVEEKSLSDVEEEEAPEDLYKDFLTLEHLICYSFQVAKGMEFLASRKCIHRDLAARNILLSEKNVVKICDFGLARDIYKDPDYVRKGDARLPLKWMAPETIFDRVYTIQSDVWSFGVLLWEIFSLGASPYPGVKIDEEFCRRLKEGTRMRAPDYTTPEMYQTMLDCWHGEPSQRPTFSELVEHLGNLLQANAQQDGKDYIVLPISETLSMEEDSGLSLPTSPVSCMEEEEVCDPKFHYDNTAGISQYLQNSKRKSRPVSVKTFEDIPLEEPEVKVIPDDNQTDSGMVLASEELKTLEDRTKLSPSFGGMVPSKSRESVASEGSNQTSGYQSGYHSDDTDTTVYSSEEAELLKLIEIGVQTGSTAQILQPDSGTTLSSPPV

{"compound": "Oc1cc(O)c2c(=N[C]34[CH]5[CH]6[CH]7[CH]3[Fe]6754389%10[CH]4[CH]3[CH]8[CH]9[CH]4%10)cc(-c3ccccc3)oc2c1 (stereo not shown) [CFSB]", "target": "VEGFR (Homo sapiens, UniProt P35968)", "IC50": "> 100 µM"}

====

target: TrkA (Homo sapiens, UniProt P04629)
Sequence (P04629 33-796): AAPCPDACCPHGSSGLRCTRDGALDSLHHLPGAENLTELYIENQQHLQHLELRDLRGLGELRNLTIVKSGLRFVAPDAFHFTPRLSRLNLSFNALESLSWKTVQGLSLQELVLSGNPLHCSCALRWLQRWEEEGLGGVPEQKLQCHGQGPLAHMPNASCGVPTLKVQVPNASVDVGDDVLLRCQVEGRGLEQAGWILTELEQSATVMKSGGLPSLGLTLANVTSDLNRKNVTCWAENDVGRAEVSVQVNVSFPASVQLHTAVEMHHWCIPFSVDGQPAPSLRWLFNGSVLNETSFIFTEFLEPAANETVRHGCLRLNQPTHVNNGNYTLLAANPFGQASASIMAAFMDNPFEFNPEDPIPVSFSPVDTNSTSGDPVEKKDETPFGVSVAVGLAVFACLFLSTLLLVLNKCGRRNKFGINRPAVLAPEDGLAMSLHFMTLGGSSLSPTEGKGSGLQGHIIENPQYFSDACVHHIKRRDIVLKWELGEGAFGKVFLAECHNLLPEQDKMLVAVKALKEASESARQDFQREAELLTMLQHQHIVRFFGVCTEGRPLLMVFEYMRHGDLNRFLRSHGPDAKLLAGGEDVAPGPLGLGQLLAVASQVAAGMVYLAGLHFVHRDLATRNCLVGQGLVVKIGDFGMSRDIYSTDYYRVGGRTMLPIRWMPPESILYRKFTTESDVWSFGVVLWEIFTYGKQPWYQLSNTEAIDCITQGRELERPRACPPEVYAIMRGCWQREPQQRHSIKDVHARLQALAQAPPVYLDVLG
pIC50: −log10 of the molar value.

{"compound": "Oc1cc(O)c2c(=N[C]34[CH]5[CH]6[CH]7[CH]3[Fe]6754389%10[CH]4[CH]3[CH]8[CH]9[CH]4%10)cc(-c3ccccc3)oc2c1 (stereo not shown)", "pIC50": "< 4.00"}
